Below, each entry is listed with its recorded pKd.
- SUBJECT OF TEST: staphylococcal enterotoxin B (Staphylococcus aureus (strain not …, UniProt P01552))
- Sequence (P01552 28-266): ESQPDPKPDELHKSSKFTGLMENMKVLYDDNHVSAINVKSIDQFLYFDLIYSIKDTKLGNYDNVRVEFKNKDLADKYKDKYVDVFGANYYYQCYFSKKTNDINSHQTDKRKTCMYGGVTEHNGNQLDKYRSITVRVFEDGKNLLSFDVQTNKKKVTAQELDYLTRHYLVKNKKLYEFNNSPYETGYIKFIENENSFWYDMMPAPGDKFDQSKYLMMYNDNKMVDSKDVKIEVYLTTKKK
- ASSAY COMMENT: SPR
- PROTOCOL CONDITIONS: both partners purified
Please express pKd as -log10 of the molar concentration.

Past entries and their recorded results:
>>> result("sdAb H9-A1 (VHH, source: E. coli Rosetta (DE3), periplasm, purified (IMAC, size exclusion chromatography)) VHH: EVQLQASGGGLVQPGGSLRLSCAASGSAVSIGFMAWYRQAPGKQRELVARISSSGLPDYADTVKGRFTISRDNTRKTVSLQMNSLNPDDTAVYYCNARLYDGSSAWGQGTQVTVSS")
8.90
>>> result("sdAb S222-A2 (VHH, source: E. coli, periplasm, purified (IMAC, size exclusion chromatography)) VHH: DVQLQASGGGLVEPGGSLRLSCAASGSAVSIGFMGWHRQAPGKQRERVAQISSTGIPNYADTVKGRFTISRDNTKNTMYLQMNSLNADDTAVYFCNARLYDGTSAWGQGTQVTVSS")
8.38
>>> result("sdAb B1 (VHH, source: E. coli Rosetta (DE3), periplasm, purified (IMAC, size exclusion chromatography)) VHH: EVQLQASGGGLVQAGGSLRLTCAVSGPTFGSYALGWFRQAPGKEREFVAAVSWSGGDTYADTAKGRFIISRDNAKNTVYLQMNNLEPEDTAVYSCARMQDRYYISKDAKDYGYWGQGTQVIVSS")
9.70

Give its pKd value. Item: sdAb H9-D7 (VHH, source: E. coli Rosetta (DE3), periplasm, purified (IMAC, size exclusion chromatography)) VHH: DVQLQASGGGLVQVGGSLRLSCAASGSTFRIGYMSWHRQAPGKSRELVARISSGGTTDYLDSVKDRFTISRDNTKNTVYLQMNSLEPEDTAVYYCNVVDYRANEYWGQGTQVAVSS
8.96
